EXPERIMENT_SUMMARY: Measurement of compression rate
Assay type: physicochemical
EXPERIMENTAL_SETUP: (volume 1−volume 2)/volume 1
ASSAY_READOUT: Compression rate

{"COMPOUND": "O=C(O)[C@H](O)c1ccccc1Cl [Example 4, (R)-2-chloromandelic acid]", "Compression rate": 0.03}
{"COMPOUND": "O=C(O)[C@H](O)c1ccccc1Cl [compound 1, (R)-2-chloromandelic acid, reference compound]", "Compression rate": 0.04}
{"COMPOUND": "O=C(O)[C@H](O)c1ccccc1Cl [Example 6, (R)-2-chloromandelic acid]", "Compression rate": 0.03}
{"COMPOUND": "O=C(O)[C@H](O)c1ccccc1Cl [Example 3, (R)-2-chloromandelic acid]", "Compression rate": 0.03}

Values were extracted from patent US20040242693A1.
